molecular target: Recombinant bovine HSC70 (Stressgen) (bovine) (UniProt P19120); experiment: SPR, BIAcore 3000; HSC70 immobilised, peptide injected; 1:1 Langmuir fit; row for analyte at 25 µM
Sequence (P19120 whole entry): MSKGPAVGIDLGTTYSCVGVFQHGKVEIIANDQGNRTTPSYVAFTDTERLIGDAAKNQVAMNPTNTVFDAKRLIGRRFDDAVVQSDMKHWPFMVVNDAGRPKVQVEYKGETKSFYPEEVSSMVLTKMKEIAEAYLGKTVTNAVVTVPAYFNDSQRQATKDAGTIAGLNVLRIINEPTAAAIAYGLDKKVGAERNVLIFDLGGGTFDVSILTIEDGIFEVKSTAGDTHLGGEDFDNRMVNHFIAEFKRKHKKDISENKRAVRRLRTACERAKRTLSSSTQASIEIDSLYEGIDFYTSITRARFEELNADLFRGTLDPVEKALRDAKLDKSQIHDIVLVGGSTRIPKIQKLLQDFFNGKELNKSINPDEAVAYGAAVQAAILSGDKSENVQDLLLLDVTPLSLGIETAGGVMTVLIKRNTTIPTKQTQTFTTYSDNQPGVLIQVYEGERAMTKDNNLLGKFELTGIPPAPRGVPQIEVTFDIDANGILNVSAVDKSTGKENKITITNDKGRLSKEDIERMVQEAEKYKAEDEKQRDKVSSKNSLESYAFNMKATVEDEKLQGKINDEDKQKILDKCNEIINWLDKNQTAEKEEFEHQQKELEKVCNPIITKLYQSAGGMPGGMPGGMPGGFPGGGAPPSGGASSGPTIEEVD
pKd: −log10 of the molar value. Non-standard residues stand in square brackets, D forms with d. No end group written: not given here. Met(O) = CS(=O)CC[C@H](N)C(=O)O; pS = N[C@@H](COP(=O)(O)O)C(=O)O
measured metric: pKd

(1) RIH[Met(O)]VYSKR[pS]GKPRGYAFIEY
(2) RIHMVYSKR[pS]GKPRGYAFIEY [P140 peptide (SEQ ID NO: 1 in which serine at position 10 is phosphorylated; SEQ ID NO: 4)]
Rank 1 against 2 by their pKd values and give the higher one. Choose, then provide that item's label.
1
(1: 5.72, 2: 5.16)

Source listed as patent US20210308211A1.
